Here's a batch of compounds along with measured Ki for Bcl-2 (Homo sapiens, UniProt P10415).

Consider the following illustrative entries.
CC(C)C(CN(C)C)N(Cc1ccccc1)Cc1cccc(CN2OC(CO)C(C(C)O)C2C(=O)NC2CC3CC(C2C)C3(C)C)c1 (stereo not shown)	< 800 nM
C[C@@H](O)[C@H]1[C@@H](CO)ON(Cc2cccc(C#CC(C)(O)c3ccccc3)c2)[C@H]1C(=O)NCCCN(C)c1ccccc1 (stereo partly shown)	800 to 6000 nM
C[C@@H]1[C@@H](NC(=O)[C@@H]2[C@H]([C@H](C)O)[C@H](CO)ON2Cc2cccc(-c3cccc(C(=O)NCCc4c[nH]cn4)c3)c2)C[C@H]2C[C@@H]1C2(C)C	< 800 nM
C[C@H](O)[C@@H]1[C@H](CO)ON(Cc2cccc(C#CCNC(=O)c3ccccc3)c2)[C@@H]1C(=O)N[C@H]1C[C@H]2CC([C@@H]1C)C2(C)C	800 to 6000 nM
CCN1CCCC1CN(Cc1ccccc1)Cc1cccc(CN2OC(CO)C(C(C)O)C2C(=O)NC2CC3CC(C2C)C3(C)C)c1 (stereo not shown)	< 800 nM
C[C@@H]1[C@@H](NC(=O)[C@@H]2[C@H]([C@H](C)O)[C@H](CO)ON2Cc2cccc(-c3ccc(C(=O)N4CCOCC4)cc3)c2)C[C@H]2C[C@@H]1C2(C)C	< 800 nM
CSc1cccc(-c2cccc(CN3O[C@@H](CO)[C@@H]([C@H](C)O)[C@H]3C(=O)N[C@H]3C[C@H]4C[C@@H]([C@@H]3C)C4(C)C)c2)c1	< 800 nM
C[C@@H]1[C@@H](NC(=O)[C@@H]2[C@H]([C@H](C)O)[C@H](CO)ON2Cc2cccc(-c3cccc(C(=O)N[C@H]4CCNC4)c3)c2)C[C@H]2C[C@@H]1C2(C)C	< 800 nM

Ask: // query Ki value for entry COC(=O)[C@@H](NC(=O)[C@@H]1[C@H]([C@H](C)O)[C@H](CO)ON1Cc1cccc(C#CC2(N)CCCCC2)c1)C(C)C
Reply: > 50000 nM

Ask: // query Ki value for entry CC(O)C1C(CO)ON(Cc2cccc(CNC(Cc3ccccc3)CN(C)C)c2)C1C(=O)NC1CC2CC(C1C)C2(C)C (stereo not shown) [Compound 467]
Reply: < 800 nM

###

Tested on: Human Pancreatic Cancer Cell Line Panc1
protocol_summary: Cell death assay (propidium iodide/Hoechst) in Panc1 cells with or without camptothecin
Format: cell-based
settings: with 3 uM Camptothecin, 72 hours, % cell death by propidium iodide/Hoechst, read-out: Panc1 + Cpt IC50
pIC50: −log10 of the molar value.
measured_parameter: pIC50

Ask: // query pIC50 value for entry CC(C)C(CN(C)C)NCc1cccc(CN2OC(CO)C(C(C)O)C2C(=O)NC2CC3CC(C2C)C3(C)C)c1 (stereo not shown)
Reply: < 5.60

Ask: // query pIC50 value for entry CC(C)C[C@@H](CN(C)C)N(Cc1cccc(CN2O[C@@H](CO)C([C@H](C)O)[C@H]2C(=O)N[C@H]2C[C@H]3C[C@@H]([C@@H]2C)C3(C)C)c1)Cc1c(O)cccc1F (stereo partly shown)
Reply: 5.74 to 5.89

Ask: // query pIC50 value for entry CC(O)C1C(CO)ON(Cc2cccc(CN(CCN(C)C)Cc3ccsc3)c2)C1C(=O)NC1CC2CC(C1C)C2(C)C (stereo not shown)
Reply: < 5.60

Ask: // query pIC50 value for entry CC(O)C1C(CO)ON(Cc2cccc(CN(CCN(C)C)Cc3ccoc3)c2)C1C(=O)NC1CC2CC(C1C)C2(C)C (stereo not shown)
Reply: < 5.60

###

Here's a batch of molecules along with measured pKi for Bcl-2 (Homo sapiens, UniProt P10415).
pKi: −log10 of the molar value.

CC(O)C1C(CO)ON(Cc2cccc(CN(CCN(C)C)Cc3ccccc3-c3ccc(Cl)cc3)c2)C1C(=O)NC1CC2CC(C1C)C2(C)C (stereo not shown) [Compound 409]	> 6.10
C[C@@H]1[C@@H](NC(=O)[C@@H]2[C@H]([C@H](C)O)[C@H](CO)ON2Cc2cccc(N3CCN(C(=S)NCc4ccccc4)CC3)c2)C[C@H]2C[C@@H]1C2(C)C [Compound 263]	> 6.10
C[C@@H]1[C@@H](NC(=O)[C@@H]2[C@H]([C@H](C)O)[C@H](CO)ON2Cc2cccc(-c3cccc(C(=O)NCCN4CCCCC4)c3)c2)C[C@H]2C[C@@H]1C2(C)C [Compound 105]	> 6.10
C[C@@H]1[C@@H](NC(=O)[C@@H]2[C@H]([C@H](C)O)[C@H](CO)ON2Cc2cccc(-c3cccc(C(=O)N4CC[C@H](N(C)C)C4)c3)c2)C[C@H]2C[C@@H]1C2(C)C [Compound 119]	> 6.10
CC(C)CN(CCN(C)C)Cc1cccc(CN2OC(CO)C(C(C)O)C2C(=O)NC2CC3CC(C2C)C3(C)C)c1 (stereo not shown) [Compound 379]	> 6.10
COCCNC(=O)[C@@H]1[C@H]([C@H](C)O)[C@H](CO)ON1Cc1cccc(CN(Cc2ccccc2)[C@@H](CC(C)C)CN(C)C)c1 [Compound 535]	4.30 to 5.22

With those in mind, consider the next molecule.
Ask: I'm curious: which pKi was measured for C[C@@H]1[C@@H](NC(=O)[C@@H]2[C@H]([C@H](C)O)[C@H](CO)ON2Cc2cccc(N3CCN(C(=S)NCCc4ccccc4)CC3)c2)C[C@H]2C[C@@H]1C2(C)C [Compound 266] tested on Bcl-2 (Homo sapiens, UniProt P10415)?
Reply: > 6.10

###

System: Human Pancreatic Cancer Cell Line Panc1
protocol_summary: Cell death assay (propidium iodide/Hoechst) in Panc1 cells with or without camptothecin
Assay type: cell-based
settings: with 3 uM Camptothecin, 72 hours, % cell death by propidium iodide/Hoechst, read-out: Panc1 + Cpt IC50
This section presents molecules with their documented IC50 values.

Consider the following illustrative entries.
CC(C)CC(CN(C)C)N(Cc1cccc(CN2OC(CO)C(C(C)O)C2C(=O)NC2CC3CC(C2C)C3(C)C)c1)Cc1ccccc1Cl (centres unmarked)	1300 to 1800 nM
COc1cccc(CN(Cc2cccc(CN3OC(CO)C(C(C)O)C3C(=O)NC3CC4CC(C3C)C4(C)C)c2)C(CC(C)C)CN(C)C)c1 (centres unmarked)	1300 to 1800 nM
CC(O)C1C(CO)ON(Cc2cccc(CN(CCN(C)C)Cc3cccc(Br)c3)c2)C1C(=O)NC1CC2CC(C1C)C2(C)C (centres unmarked)	1800 to 2500 nM
CC(O)C1C(CO)ON(Cc2cccc(CN(CCN(C)C)Cc3c(F)cccc3C(F)(F)F)c2)C1C(=O)NC1CC2CC(C1C)C2(C)C (centres unmarked)	1300 to 1800 nM
CC(C)CC(CN(C)C)N(Cc1cccc(CN2OC(CO)C(C(C)O)C2C(=O)NC2CC3CC(C2C)C3(C)C)c1)Cc1ccccc1Br (centres unmarked)	1300 to 1800 nM

Ask: // query IC50 value for entry CC(O)C1C(CO)ON(Cc2cccc(C(=O)NC(Cc3ccccc3)CN(C)C)c2)C1C(=O)NC1CC2CC(C1C)C2(C)C (centres unmarked)
Reply: > 2500 nM

Ask: // query IC50 value for entry COc1ccc(COc2c(CN3O[C@@H](CO)[C@@H]([C@H](C)O)[C@H]3C(=O)N[C@H]3C[C@H]4C[C@@H]([C@@H]3C)C4(C)C)cccc2-c2ccc(C(=O)N(C)C)cc2)cc1
Reply: < 1300 nM

Ask: // query IC50 value for entry CC(O)C1C(CO)ON(Cc2cccc(CN(CCN(C)C)Cc3cccnc3)c2)C1C(=O)NC1CC2CC(C1C)C2(C)C (centres unmarked)
Reply: > 2500 nM

Ask: // query IC50 value for entry CC(O)C1C(CO)ON(Cc2cccc(CN(CCN(C)C)Cc3ccccn3)c2)C1C(=O)NC1CC2CC(C1C)C2(C)C (centres unmarked)
Reply: > 2500 nM

Ask: // query IC50 value for entry CC(O)C1C(CO)ON(Cc2cccc(CN(Cc3ccccc3)C(C)CN(C)C)c2)C1C(=O)NC1CC2CC(C1C)C2(C)C (centres unmarked)
Reply: > 2500 nM

###

Here's a batch of compounds along with measured Ki for Bcl-2 (Homo sapiens, UniProt P10415).

Consider the following illustrative entries.
CC(O)C1C(CO)ON(Cc2cccc(CN(CCN(C)C)Cc3cccc(O)c3)c2)C1C(=O)NC1CC2CC(C1C)C2(C)C (stereo not drawn) [Compound 378]	< 800 nM
C[C@H](O)[C@@H]1[C@H](CO)ON(Cc2cccc(CN(CCN(C)C)CC3CCCCC3)c2)[C@@H]1C(=O)NC1C[C@H]2C[C@@H]([C@@H]1C)C2(C)C (stereo partly drawn) [Compound 190]	< 800 nM
C[C@@H]1[C@@H](NC(=O)[C@@H]2[C@H]([C@H](C)O)[C@H](CO)ON2Cc2cccc(N3CCN(C(=O)NCc4ccccc4)CC3)c2)C[C@H]2C[C@@H]1C2(C)C [Compound 260]	< 800 nM
C[C@H](O)[C@@H]1[C@H](CO)ON(Cc2cccc(C#CC3(N)CCCCC3)c2)[C@@H]1C(=O)NCCCN(C)c1ccccc1 [Compound 28]	6000 to 50000 nM
C[C@@H]1[C@@H](NC(=O)[C@@H]2[C@H]([C@H](C)O)[C@H](CO)ON2Cc2cccc(N(CCCN(C)C)CC3CCCCC3)c2)C[C@H]2C[C@@H]1C2(C)C [Compound 586]	< 800 nM

With those in mind, consider the next compound.
Ask: // query Ki value for entry CSc1ccccc1CN(Cc1cccc(CN2OC(CO)C(C(C)O)C2C(=O)NC2CC3CC(C2C)C3(C)C)c1)C(CC(C)C)CN(C)C (stereo not drawn) [Compound 330]
Reply: < 800 nM
